Target: HDAC-3 (Homo sapiens)
Sequence (O15379 whole entry, species assumed): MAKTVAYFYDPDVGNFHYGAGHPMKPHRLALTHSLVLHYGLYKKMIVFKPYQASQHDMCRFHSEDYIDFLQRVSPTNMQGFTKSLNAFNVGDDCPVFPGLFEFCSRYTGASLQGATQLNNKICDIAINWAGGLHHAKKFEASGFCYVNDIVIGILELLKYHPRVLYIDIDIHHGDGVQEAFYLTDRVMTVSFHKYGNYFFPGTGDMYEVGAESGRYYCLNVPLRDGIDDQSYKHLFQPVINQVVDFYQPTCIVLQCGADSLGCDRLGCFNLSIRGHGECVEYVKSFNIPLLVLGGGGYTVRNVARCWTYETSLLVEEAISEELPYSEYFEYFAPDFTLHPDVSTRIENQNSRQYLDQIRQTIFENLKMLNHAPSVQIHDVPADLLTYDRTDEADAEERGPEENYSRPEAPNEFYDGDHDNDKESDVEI
Sequence (Q9Y618 395-489 partner limits assumed, species assumed): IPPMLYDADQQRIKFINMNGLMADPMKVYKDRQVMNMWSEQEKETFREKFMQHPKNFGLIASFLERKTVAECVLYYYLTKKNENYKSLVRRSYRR
Assay: HDAC inhibitory activity assay with HDAC-3 (fluorophore/quencher peptide substrate)
Type: biochemical
Conditions: enzyme/compound mix incubated at room temperature for 2 hours; reaction about 45 minutes; fluorescence read
Protocol: HDAC inhibitory activity of the compound of Example 1 was measured by an assay in which HDAC-1 or -3 were used as a target molecule. The test compound was suspended in and titrated in DMSO. It was then spotted into a 384-well test plate. […] The reaction was incubated at room temperature for about 15 minutes and relative fluorescence was read on an instrument reader.
IC50 values, listed per item
Write the answer as a number in µM, unit excluded.

{"MOLECULE": "CC(C(=O)Nc1ccc(C(=O)Nc2cc(-c3ccc(F)cc3)ccc2N)cc1)N1CCCC1 (stereo not drawn)", "UNIT ABBREV": "µM", "IC50": 3.11}
{"MOLECULE": "CC(C(=O)Nc1ccc(C(=O)Nc2ccccc2N)cc1)N1CCCC1=O (stereo not drawn)", "UNIT ABBREV": "µM", "IC50": 0.3}

Now look at this one.
Exercise: Please indicate IC50 recorded for CC(C(=O)Nc1ccc(C(=O)Nc2cc(-c3cccs3)ccc2N)cc1)N1CCCC1 (stereo not drawn)
Key: 2.1

Values compiled from patent US8431610B2.
